Target: AhR (Homo sapiens)
Construct: host or cells: HepG2
Sequence (P35869 11-848): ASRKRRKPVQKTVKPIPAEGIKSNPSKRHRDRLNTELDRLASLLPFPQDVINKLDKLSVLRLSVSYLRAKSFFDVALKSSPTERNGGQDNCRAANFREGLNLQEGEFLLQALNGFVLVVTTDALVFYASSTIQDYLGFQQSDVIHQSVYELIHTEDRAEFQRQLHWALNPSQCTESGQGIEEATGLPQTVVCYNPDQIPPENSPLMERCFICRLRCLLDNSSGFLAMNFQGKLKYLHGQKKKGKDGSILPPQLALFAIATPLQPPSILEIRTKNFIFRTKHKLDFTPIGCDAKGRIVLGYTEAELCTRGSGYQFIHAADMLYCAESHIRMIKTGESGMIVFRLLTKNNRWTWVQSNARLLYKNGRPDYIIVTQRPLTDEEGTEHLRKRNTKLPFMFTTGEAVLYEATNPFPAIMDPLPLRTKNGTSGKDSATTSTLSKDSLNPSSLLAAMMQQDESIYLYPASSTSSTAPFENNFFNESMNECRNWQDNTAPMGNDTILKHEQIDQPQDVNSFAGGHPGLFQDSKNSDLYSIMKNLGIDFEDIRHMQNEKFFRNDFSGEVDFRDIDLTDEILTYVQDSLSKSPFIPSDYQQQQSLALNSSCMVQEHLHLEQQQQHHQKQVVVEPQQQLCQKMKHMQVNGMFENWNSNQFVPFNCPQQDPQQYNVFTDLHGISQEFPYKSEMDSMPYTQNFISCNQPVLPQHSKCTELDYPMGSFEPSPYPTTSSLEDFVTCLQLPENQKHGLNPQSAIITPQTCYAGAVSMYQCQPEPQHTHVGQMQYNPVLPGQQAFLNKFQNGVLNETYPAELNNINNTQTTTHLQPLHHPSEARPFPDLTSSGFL
Assay: In vitro assay 1: XRE-luciferase reporter assay, antagonism in human cell line (HepG2)
Type: cell-based
Conditions: HepG2 XRE-luciferase, cells treated with kynurenine 200 μM (no *), 6 hours; read-out: Assay 1: AhR-Luc Human Antagonism (IC50)
pIC50: −log10 of the molar value.
quantity-name: pIC50

{"molecule": "O=c1c2cc(-c3ccc(C(F)(F)F)cc3)nc(-c3cccnc3)c2ncn1-c1cccc(O)c1 [Example 62]", "result": "> 8.00"}
{"molecule": "CC(CO)N1CNc2c(cc(-c3ccc(Cl)cc3)nc2-c2cccnc2)C1=O (centres unmarked) [Example 60]", "result": "7.00 to 8.00"}
{"molecule": "O=c1c2cc(-c3ccc(Cl)cc3)nc(-c3cccnc3)c2ncn1CC(O)CO (centres unmarked) [Example 67]", "result": "> 8.00"}
{"molecule": "CC(CO)n1cnc2c(-c3cccnc3)nc(-c3ccc(Cl)cc3)cc2c1=O (centres unmarked) [Example 46]", "result": "> 8.00"}
{"molecule": "Cn1cc(-c2nc(-c3ccc(Cl)cc3)cc3c(=O)n(-c4cccc(O)c4)cnc23)cn1 [Example 26]", "result": "7.00 to 8.00"}
{"molecule": "O=c1c2cc(-c3ccc(Cl)cc3)nc(-c3cccnc3)c2ncn1C1CCC(O)CC1 (centres unmarked) [Example 58]", "result": "> 8.00"}
{"molecule": "CC(C(=O)O)n1cnc2c(-c3cccnc3)nc(-c3ccc(C(F)(F)F)cc3)cc2c1=O (centres unmarked) [Example 84]", "result": "6.00 to 7.00"}
{"molecule": "CC(C)C(CO)n1cnc2c(-c3cccnc3)nc(-c3ccc(C(F)(F)F)nc3)cc2c1=O (centres unmarked) [Example 43]", "result": "< 6.00"}
{"molecule": "O=c1c2cc(-c3ccc(N4CCOCC4)cc3)nc(-c3cccnc3)c2ncn1CC(O)CO (centres unmarked) [Example 82]", "result": "> 8.00"}
{"molecule": "CC(C(=O)O)n1cnc2c(-c3cccnc3)nc(-c3ccc(Cl)cc3)cc2c1=O (centres unmarked) [Example 83]", "result": "6.00 to 7.00"}
{"molecule": "CC(CN)n1cnc2c(-c3cccnc3)nc(-c3ccc(C(F)(F)F)cc3)cc2c1=O (centres unmarked) [Example 85]", "result": "7.00 to 8.00"}
{"molecule": "O=c1c2cc(-c3ccc(Cl)nc3)nc(-c3cccnc3)c2ncn1[C@@H]1CC[C@H](O)C1 [Example 71]", "result": "7.00 to 8.00"}
{"molecule": "O=c1c2cc(-c3ccc(C(F)(F)F)cc3)nc(-c3cccnc3)c2ncn1C(CO)CO [Example 69]", "result": "> 8.00"}
{"molecule": "O=c1c2cc(-c3ccc(C(F)(F)F)cc3)nc(-c3cccnc3)c2ncn1C1CCNCC1 [Example 93]", "result": "> 8.00"}
{"molecule": "CC(=O)OC(C)(C)Cn1cnc2c(-c3cccnc3)nc(-c3ccc(C(F)(F)F)cc3)cc2c1=O [Example 37]", "result": "> 8.00"}
{"molecule": "Cn1cc(-c2nc(-c3ccc(Cl)cc3)cc3c(=O)n(CC(O)C(F)(F)F)cnc23)cn1 (centres unmarked) [Example 23]", "result": "> 8.00"}
{"molecule": "CC(CN)n1cnc2c(-c3cccnc3)nc(-c3ccc(Cl)cc3)cc2c1=O (centres unmarked) [Example 87]", "result": "> 8.00"}
{"molecule": "O=c1c2cc(-c3ccc(N4CCOCC4)cc3)nc(-c3cccnc3)c2ncn1C1CCS(=O)(=O)CC1 [Example 78]", "result": "> 8.00"}
{"molecule": "O=c1c2cc(-c3ccc(N4CCOCC4)cc3)nc(-c3cccnc3)c2ncn1C(CO)CO [Example 80]", "result": "> 8.00"}
{"molecule": "O=c1c2cc(-c3ccc(N4CCOCC4)cc3)nc(-c3cccnc3)c2ncn1[C@@H]1CC[C@H](O)C1 [Example 73]", "result": "> 8.00"}
{"molecule": "CS(=O)(=O)CCn1cnc2c(-c3cccnc3)nc(-c3ccc(N4CCOCC4)cc3)cc2c1=O [Example 79]", "result": "> 8.00"}
{"molecule": "CC(CO)n1cnc2c(-c3cccnc3)nc(-c3ccc(-c4ccc(Cl)cc4)cc3)cc2c1=O (centres unmarked) [Example 74]", "result": "> 8.00"}
{"molecule": "CC(C)C(CO)n1cnc2c(-c3cccnc3)nc(-c3ccc(Cl)cc3)cc2c1=O (centres unmarked) [Example 41]", "result": "< 6.00"}
{"molecule": "CC(=O)NCC(C)n1cnc2c(-c3cccnc3)nc(-c3ccc(Cl)cc3)cc2c1=O (centres unmarked) [Example 88]", "result": "> 8.00"}
{"molecule": "O=c1c2cc(-c3ccc(C(F)(F)F)cc3)nc(-c3cccnc3)c2ncn1[C@@H]1CC[C@H](O)C1 [Example 29]", "result": "> 8.00"}
{"molecule": "CC(CNS(C)(=O)=O)n1cnc2c(-c3cccnc3)nc(-c3ccc(N4CCOCC4)cc3)cc2c1=O (centres unmarked) [Example 91]", "result": "> 8.00"}
{"molecule": "CS(=O)(=O)CCn1cnc2c(-c3cccnc3)nc(-c3ccc(Cl)cc3)cc2c1=O [Example 77]", "result": "> 8.00"}
{"molecule": "Cn1cc(-c2nc(-c3ccc(C(F)(F)F)cc3)cc3c(=O)n([C@H]4CCCC[C@H]4O)cnc23)cn1 [Example 17]", "result": "< 6.00"}
{"molecule": "CC(C)C(CO)n1cnc2c(-c3cccnc3)nc(-c3ccc(C(F)(F)F)cc3)cc2c1=O (centres unmarked) [Example 42]", "result": "< 6.00"}
{"molecule": "CC(CN)n1cnc2c(-c3cccnc3)nc(-c3ccc(N4CCOCC4)cc3)cc2c1=O (centres unmarked) [Example 90]", "result": "6.00 to 7.00"}
{"molecule": "O=c1c2cc(-c3ccc(Cl)cc3)nc(-c3cccnc3)c2ncn1C1CCN(S(=O)(=O)C2CC2)CC1 [Example 95]", "result": "> 8.00"}
{"molecule": "O=c1c2cc(-c3ccc(C(F)(F)F)cc3)nc(-c3cccnc3)c2ncn1C[C@@H](O)CO [Example 81]", "result": "> 8.00"}
